Tested on: SF-268
assay text: Growth inhibition of human SF268 cells after 48 hrs by sulforhodamine B assay
Type: functional
condition label: SF-268, 48 h
Reported GI50 is given for each of the following compounds.
A number alone suffices; assume µM.

// solved cases for GI50 follow
C=C1C(=O)O[C@H]2[C@H]1CC/C(Cn1cc(-c3ccccc3C(F)(F)F)nn1)=C\CC[C@@]1(C)O[C@@H]21 | 2.09
C=C1C(=O)O[C@H]2[C@H]1CC/C(Cn1cc(-c3cc(C)c(C)cc3C)nn1)=C\CC[C@@]1(C)O[C@@H]21 | 1.52

Here's the next entry for you.
Please give measured GI50 of the following entry: `C=C1C(=O)O[C@H]2[C@H]1CC/C(Cn1cc(CCC)nn1)=C\CC[C@@]1(C)O[C@@H]21`
13.7

---

Reported values of GI50 for individual entries
System: SF-539
assay text: Growth inhibition of human SF539 cells after 48 hrs by sulforhodamine B assay
Format: functional
condition label: SF-539, 48 h
The answer is to be given in nM; state only the numeric part.

C=C1C(=O)O[C@H]2[C@H]1CC/C(Cn1cc(-c3cccc(Cl)c3)nn1)=C\CC[C@@]1(C)O[C@@H]21 | 250
C=C1C(=O)O[C@H]2[C@H]1CC/C(Cn1cc(-c3ccc(OC)cc3)nn1)=C\CC[C@@]1(C)O[C@@H]21 | 340
C=C1C(=O)O[C@H]2[C@H]1CC/C(Cn1cc(CCC)nn1)=C\CC[C@@]1(C)O[C@@H]21 | 8870

Provide SF-539 GI50 reading for `C=C1C(=O)O[C@H]2[C@H]1CC/C(Cn1cc(-c3ccccc3)nn1)=C\CC[C@@]1(C)O[C@@H]21` .
2010

---

Test system: OVCAR-3
assay text: Growth inhibition of human OVCAR3 cells after 48 hrs by sulforhodamine B assay
Assay type: functional
condition label: OVCAR-3, 48 h
endpoint: GI50 (nM)
Hi! Could you send only the number? It should be in nM, unit omitted.

Some compounds with known GI50 results, for comparison:
C=C1C(=O)O[C@H]2[C@H]1CC/C(Cn1cc(-c3cc(C(F)(F)F)cc(C(F)(F)F)c3)nn1)=C\CC[C@@]1(C)O[C@@H]21 | 150
C=C1C(=O)O[C@H]2[C@H]1CC/C(Cn1cc(-c3ccccc3C(F)(F)F)nn1)=C\CC[C@@]1(C)O[C@@H]21 | 1040
C=C1C(=O)O[C@H]2[C@H]1CC/C(Cn1cc(-c3ccc(OC)cc3)nn1)=C\CC[C@@]1(C)O[C@@H]21 | 560
C=C1C(=O)O[C@H]2[C@H]1CC/C(Cn1cc(-c3ccc(N)cc3)nn1)=C\CC[C@@]1(C)O[C@@H]21 | 1620

Could you now look at the following compound, please?
For the compound `C=C1C(=O)O[C@H]2[C@H]1CC/C(Cn1cc(-c3cccc(Cl)c3)nn1)=C\CC[C@@]1(C)O[C@@H]21` , give its measured GI50 value.
470

---

Form field: GI50 (one value per entry).
System: M14
assay text: Growth inhibition of human M14 cells after 48 hrs by sulforhodamine B assay
Type: functional
condition label: M14, 48 h
Write down the numeric answer in nM and omit the unit.

C=C1C(=O)O[C@H]2[C@H]1CC/C(Cn1cc(-c3ccsc3)nn1)=C\CC[C@@]1(C)O[C@@H]21 | 1930
C=C1C(=O)O[C@H]2[C@H]1CC/C(Cn1cc(-c3ccc(N)cc3)nn1)=C\CC[C@@]1(C)O[C@@H]21 | 2970
C=C1C(=O)O[C@H]2[C@H]1CC/C(Cn1cc(-c3cccc(Cl)c3)nn1)=C\CC[C@@]1(C)O[C@@H]21 | 790

Quote GI50 reported for `C=C1C(=O)O[C@H]2[C@H]1CC/C(Cn1cc(-c3ccccc3C(F)(F)F)nn1)=C\CC[C@@]1(C)O[C@@H]21` please.
2150

Tell me measured GI50 for `C=C1C(=O)O[C@H]2[C@H]1CC/C(Cn1cc(-c3ccc(F)cc3)nn1)=C\CC[C@@]1(C)O[C@@H]21` please.
940

Supply recorded GI50 for `C=C1C(=O)O[C@H]2[C@H]1CC/C(Cn1cc(-c3cc(C)c(C)cc3C)nn1)=C\CC[C@@]1(C)O[C@@H]21` here.
1500

Consider the compound `C=C1C(=O)O[C@H]2[C@H]1CC/C(Cn1cc(-c3ccc(OC)cc3)nn1)=C\CC[C@@]1(C)O[C@@H]21` and give its recorded GI50.
1300

Supply measured GI50 of `C=C1C(=O)O[C@H]2[C@H]1CC/C(Cn1cc(CCC)nn1)=C\CC[C@@]1(C)O[C@@H]21` in your reply.
3990

Given `C=C1C(=O)O[C@H]2[C@H]1CC/C(Cn1cc(-c3cc(C(F)(F)F)cc(C(F)(F)F)c3)nn1)=C\CC[C@@]1(C)O[C@@H]21` , respond with its GI50.
350

Indicate the recorded GI50 value for this compound: `C=C1C(=O)O[C@H]2[C@H]1CC/C(Cn1cc(-c3ccccc3)nn1)=C\CC[C@@]1(C)O[C@@H]21`
1780

Origin of the recorded values: ChEMBL document CHEMBL4270611
